Assay: qHTS assay for identifying genotoxic compounds that show differential cytotoxicity against isogenic chicken DT40 cell lines with known DNA damage response pathways - Rad54/Ku70 mutant cell line (AID 743015); note: nearly all actives have a fitted effect of over 60% in size
Details: DT40 Rad54/Ku70 mutant viability, CellTiter-Glo, 40 h; series mostly up to 66.8 µM
Results filed as inconclusive are left out. The source made the active and inactive calls. Calls come from the whole dose curve; as a rule, active = well fitted cell-killing curve with a large enough effect in the repeat runs; inconclusive = weak or mixed curves; inactive = no such curve, though single readings can be large or run the other way.
Pick from active, inactive when you respond.

These recorded examples may help you get a feel for the data.
[[record]]
compound = "CC(C)(Sc1cc(C(C)(C)C)c(O)c(C(C)(C)C)c1)Sc1cc(C(C)(C)C)c(O)c(C(C)(C)C)c1"
discrete_label = "inactive"

[[record]]
compound = "CCOC(=O)[C@H](CCc1ccccc1)N[C@H]1CS[C@H](c2cccs2)CN(CC(=O)O)C1=O"
discrete_label = "inactive"


*Q* // param item: CCCCC(CC)CCC(CC(C)C)OS(=O)(=O)O (centres undefined) ; yields the recorded call
*A* inactive

*Q* // param item: CC(CC(=O)Cl)CC(C)(C)C (centres undefined) ; yields the recorded call
*A* inactive

*Q* // param item: "O=C(O)Cc1c(Cl)ccc(Cl)c1Cl" ; yields the recorded call
*A* inactive

*Q* // param item: "CCO/C=C1\N=C(c2ccccc2)OC1=O" ; yields the recorded call
*A* active

*Q* // param item: "N#CC1(N)CCCCC1" ; yields the recorded call
*A* inactive

*Q* // param item: "O=C(c1ccccc1)c1cccc(O)c1" ; yields the recorded call
*A* inactive

====

Target: Nuclear receptor subfamily 1 group I member 2 (Rattus norvegicus) (UniProt Q9R1A7)
Sequence (Q9R1A7 whole entry, looked up): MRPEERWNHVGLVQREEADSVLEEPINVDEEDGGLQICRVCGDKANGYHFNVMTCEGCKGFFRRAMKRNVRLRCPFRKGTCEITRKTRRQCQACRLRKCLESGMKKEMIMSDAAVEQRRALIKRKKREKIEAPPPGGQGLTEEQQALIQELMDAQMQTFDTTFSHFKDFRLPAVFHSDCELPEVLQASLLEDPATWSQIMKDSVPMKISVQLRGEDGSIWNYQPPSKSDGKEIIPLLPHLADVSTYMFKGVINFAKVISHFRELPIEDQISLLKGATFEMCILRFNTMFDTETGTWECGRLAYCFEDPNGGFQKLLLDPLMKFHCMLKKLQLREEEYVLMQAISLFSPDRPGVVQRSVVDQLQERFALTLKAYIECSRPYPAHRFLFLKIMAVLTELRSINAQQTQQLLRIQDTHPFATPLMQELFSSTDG
Test: Rat pregnane X receptor (rPXR) activation by small molecules, qHTS assay (AID 1346983); note: % is set by controls: 0 for no effect and ±100 for the full control effect; nearly all actives have a fitted effect of over 20% in size
Conditions: rPXR luciferase reporter cells, One-Glo luminescence, 24 h; stronger effect = higher value
Inconclusive results are not listed.
recorded.metric: max activation (%)
Supply the numeric figure in %, leaving out any unit text.

Past entries and their recorded results:
[[record]]
compound = "CN1CCN(C(=O)C2CCCCC2)CC1"
reported_result = -9.64

[[record]]
compound = "Cc1ccc(S(=O)(=O)NC(=O)NN2CC3CCCC3C2)cc1 (stereo not drawn)"
reported_result = 1.11

[[record]]
compound = "C=CCN1CCc2nc(N)sc2CC1"
reported_result = -4.96

[[record]]
compound = "CCOc1ccccc1OCCN[C@H](C)Cc1ccc(OC)c(S(N)(=O)=O)c1"
reported_result = -6.48

[[record]]
compound = "CN(C)CCc1c[nH]c2ccc(C[C@H]3COC(=O)N3)cc12"
reported_result = -1.7


*Q* Need max activation of "O=P(O)(O)C(O)(Cc1cccnc1)P(=O)(O)O" , thanks.
*A* -2.56

====

Assay: qHTS assay to identify small molecule agonists of the retinoic acid receptor (RAR) signaling pathway (AID 1159553); note: potency is the fitted concentration of half-maximal effect; for activation: % is set by controls: 0 for no effect and ±100 for the full control effect
Settings: C3RL4 RARE luciferase reporter, agonist, 6 h; series mostly up to 73.3 µM
Results filed as inconclusive are left out. The source made the active and inactive calls. Calls follow the shape of the dose curve; as a rule, active = well fitted activation curve with a large enough effect in the repeat runs; inconclusive = weak or mixed curves, or effect the other way; inactive = no such curve, though single readings can be large or run the other way.
recorded.metric: Potency

Past entries and their recorded results:
[[record]]
molecule = "O=Cc1ccccc1S(=O)(=O)O"
reported_result = "inactive"

[[record]]
molecule = "CCOC(=O)c1ccc(N(C)C)cc1"
reported_result = "15.4 µM (active)"

[[record]]
molecule = "CC(C)OC(=O)C(C(=O)OC(C)C)=C1SC=CS1"
reported_result = "inactive"

[[record]]
molecule = "Cc1cccc(N)n1"
reported_result = "inactive"

[[record]]
molecule = "C/C=C/C(=O)CCCC"
reported_result = "inactive"

[[record]]
molecule = "CCCCCCCCS(=O)(=O)O"
reported_result = "inactive"


*Q* Need Potency of "O=C1c2ccccc2C(=O)N1CO" , thanks.
*A* inactive

*Q* Need Potency of "COC(=O)c1ccc(C(=O)O)cc1" , thanks.
*A* inactive

*Q* Need Potency of CCCC(C)C(O)CC (stereo not given) , thanks.
*A* inactive

====

Assay: qHTS assay for identifying genotoxic compounds that show differential cytotoxicity against isogenic chicken DT40 cell lines with known DNA damage response pathways - wild type cell line (AID 743012); note: % is set by controls: 0 for no effect and ±100 for the full control effect; nearly all actives have a fitted effect of over 60% in size
Details: DT40 wild type chicken cells viability, CellTiter-Glo, 40 h; series mostly up to 68.4 µM
Description: U.S. Tox21 Program National Center for Advancing Translational Sciences [NCATS] NIH Chemical Genomics Center [NCGC] U.S. Environmental Protection Agency [EPA] National Institutes of Environmental Health Sciences [NIEHS] National Toxicology Program [NTP] U.S. Food and Drug Administration [FDA] Tox21 Assay Overview: DNA repair pathways play a critical role in cellular homeostasis by repairing DNA damage induced by endogenous processes and xenobiotics. […]
Inconclusive results are not listed. The source made the active and inactive calls. Calls follow the shape of the dose curve; as a rule, active = well fitted cell-killing curve with a large enough effect in the repeat runs; inconclusive = weak or mixed curves, or effect the other way; inactive = no such curve, though single readings can be large or run the other way.
Pick from true (1) (active), false (0) (inactive) when you respond.

[[record]]
compound = "C=CC(=O)OCCOCCOCC"
discrete_label = "false (0)"

[[record]]
compound = "CC(C)c1cc(C(C)C)cc(C(C)C)c1"
discrete_label = "false (0)"

[[record]]
compound = "O=c1[nH]c(=O)c2cn[nH]c2[nH]1"
discrete_label = "false (0)"

[[record]]
compound = "O=C(O)P(=O)(O)O"
discrete_label = "false (0)"

[[record]]
compound = "O=S(=O)(O)c1ccc(Cl)cc1"
discrete_label = "false (0)"


*Q* // param item: "CC(C)(O)c1ccc(C(C)(C)O)cc1" ; yields the recorded call
*A* false (0)

*Q* // param item: CCCCC(CC)CCC(CC(C)C)OS(=O)(=O)O (centres undefined) ; yields the recorded call
*A* false (0)

*Q* // param item: "CC1(C)CC(N)CC(C)(C)N1" ; yields the recorded call
*A* false (0)

*Q* // param item: "NS(=O)(=O)c1cc2c(cc1C(F)(F)F)NCNS2(=O)=O" ; yields the recorded call
*A* false (0)

*Q* // param item: "CN(C)CCc1c[nH]c2ccc(C[C@H]3COC(=O)N3)cc12" ; yields the recorded call
*A* false (0)

*Q* // param item: "CC(C)(C)C(=O)CC(=O)C(C)(C)C" ; yields the recorded call
*A* false (0)

====

Test: qHTS assay to identify small molecule agonists of the estrogen receptor beta (ER-beta) signaling pathway - cell viability counter screen (AID 1259380); note: % is set by controls: 0 for no effect and ±100 for the full control effect; nearly all actives have a fitted effect of over 30% in size
Conditions: ER-beta-bla HEK293T viability, CellTiter-Glo luminescence, 16 h; series mostly up to 92.4 µM
Results filed as inconclusive are left out. Activity calls are given as the source filed them. The call rests on the fitted dose curve; in most records, active means well fitted cell-killing curve with a large enough effect in the repeat runs; inconclusive means weak or mixed curves, or effect the other way; inactive means flat fitted curve, though single readings scatter.
recorded.metric: activity change, negative = cytotoxicity

[[record]]
molecule = "CC(=O)Nc1ccc(S(=O)(=O)Nc2cc(C)on2)cc1"
reported_result = "inactive"

[[record]]
molecule = "NNC(=O)CCCCC(=O)NN"
reported_result = "inactive"

[[record]]
molecule = "N#CC1(N)CCCCC1"
reported_result = "inactive"

[[record]]
molecule = "Cc1ccc(OC(=O)CC(C)C)cc1"
reported_result = "inactive"

[[record]]
molecule = "C=CCn1cc[n+](C)c1"
reported_result = "inactive"


*Q* Need activity change, negative = cytotoxicity of "CC1(C)C(=O)C(C)(C)C1=O" , thanks.
*A* inactive

*Q* Need activity change, negative = cytotoxicity of "COc1cc(NS(=O)(=O)c2ccc(N)cc2)ncn1" , thanks.
*A* inactive

*Q* Need activity change, negative = cytotoxicity of CC(C)C(=O)Nc1cccc(C2CN3CCSC3=N2)c1 (stereo not given) , thanks.
*A* inactive

*Q* Need activity change, negative = cytotoxicity of "CNC(=O)c1c(I)c(NC(C)=O)c(I)c(C(=O)O)c1I" , thanks.
*A* inactive

====

Test: qHTS assay to identify small molecule agonists of the retinoic acid receptor (RAR) signaling pathway (AID 1159553); for activation: % is set by controls: 0 for no effect and ±100 for the full control effect
Settings: C3RL4 RARE luciferase reporter, agonist, 6 h; series mostly up to 73.3 µM
Records with an inconclusive call do not appear. Calls of active or inactive are those of the source. The call rests on the fitted dose curve; in most records, active means well fitted activation curve with a large enough effect in the repeat runs; inconclusive means weak or mixed curves, or effect the other way; inactive means no such curve, though single readings can be large or run the other way.
Pick from 1 (yes) = active, 0 (no) = inactive when you respond.

These recorded examples may help you get a feel for the data.
[[record]]
molecule = "CC(C)c1cc(C(C)C)cc(C(C)C)c1"
discrete_label = "0 (no)"

[[record]]
molecule = "Cc1ccc2cccnc2c1"
discrete_label = "0 (no)"

[[record]]
molecule = "CC(=O)/C=C/C=C1/C2CCC(C2)C1(C)C (stereo unspecified)"
discrete_label = "0 (no)"

[[record]]
molecule = "C=CCON/C(CCC)=C1\\C(=O)CC(C)(C)C(C(=O)OC)=C1O"
discrete_label = "0 (no)"

[[record]]
molecule = "C=CC(=O)OCC[N+](C)(C)C"
discrete_label = "0 (no)"


*Q* // param item: "O=Cc1ccc(C(=O)O)cc1" ; yields the recorded call
*A* 0 (no)

*Q* // param item: CC(C)(O)CCCC1=CCC(C=O)CC1 (stereo unspecified) ; yields the recorded call
*A* 0 (no)

*Q* // param item: "CCN1CCN(C(=O)N[C@@H](C(=O)N[C@@H]2C(=O)N3C(C(=O)O)=C(CSc4nnnn4C)CS[C@H]23)c2ccc(O)cc2)C(=O)C1=O" ; yields the recorded call
*A* 0 (no)

*Q* // param item: "CC1(C)C(=O)C(C)(C)C1=O" ; yields the recorded call
*A* 0 (no)
